# Tested on: LU-139 (Small Cell Lung Carcinoma);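 note: after 72 h of two-drug dosing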
# assay_text: Bliss excess, mean over the matrix (fraction); higher = more synergy
Each entry below carries its reported Bliss excess.
Keep the answer to the number alone.

Solved entries (count: 3):
compound	tested_on	reported_result
Cn1cnc2c(F)c(Nc3ccc(Br)cc3Cl)c(C(=O)NOCCO)cc21 [Selumetinib] + CC(C)n1c(=O)n(C)c2cnc3cc(F)c(-c4ccc(OCCCN5CCCCC5)nc4)cc3c21 [AZD1390] (first compound max 10 µM, 7x7, partner max 0.3 µM)	LU-139 (Small Cell Lung Carcinoma)	-0.0259
CCc1c2c(nc3ccc(O)cc13)-c1cc3c(c(=O)n1C2)COC(=O)[C@]3(O)CC [SN-38] + O=C(c1cc(Cc2n[nH]c(=O)c3ccccc23)ccc1F)N1CCN(C(=O)C2CC2)CC1 [Olaparib] (first compound max 0.3 µM, 7x7, partner max 10 µM)	LU-139 (Small Cell Lung Carcinoma)	0.0842
C[C@@H](Nc1cc(F)cc(F)c1)c1cc(C(=O)N(C)C)cc2c(=O)cc(N3CCOCC3)oc12 [AZD8186] + C1CN(CCC1(C(=O)N[C@@H](CCO)C2=CC=C(C=C2)Cl)N)C3=NC=NC4=C3C=CN4 [AZD5363] (first compound max 10 µM, 7x7, partner max 10 µM)	LU-139 (Small Cell Lung Carcinoma)	-0.0299

LU-139 (Small Cell Lung Carcinoma) data for CC1(C)CCC(CN2CCN(c3ccc(C(=O)NS(=O)(=O)c4ccc(NCC5CCOCC5)c([N+](=O)[O-])c4)c(Oc4cnc5[nH]ccc5c4)c3)CC2)=C(c2ccc(Cl)cc2)C1 [Venetoclax] + CCN(CCO)CCCOc1ccc2c(Nc3cc(CC(=O)Nc4cccc(F)c4)[nH]n3)ncnc2c1 [AZD2811] (first compound max 1 µM, 7x7, partner max 1 µM) ; its Bliss excess: 0.0596

Considering NC1(C(=O)N[C@@H](CCO)c2ccc(Cl)cc2)CCN(c2ncnc3[nH]ccc23)CC1 [Capivasertib] + C[C@@H]1COCCN1C2=NC(=NC(=C2)C3(CC3)[S@](=N)(=O)C)C4=C5C=CNC5=NC=C4 [AZD6738] (first compound max 10 µM, 7x7, partner max 10 µM) , its Bliss excess with LU-139 (Small Cell Lung Carcinoma) was recorded as -0.0083

====

Entries and their combination Emax
# Tested on: UMC-11 (Other Solid Carcinomas)
# assay_text: combination Emax (second highest fraction inhibited in the dose matrix, 72 h); higher = more inhibition; extreme values may be limits of the assay
Give the figure by itself; no unit, no explanation.

Previously resolved entries follow.
compound	quantity_kind	reported_result
C[C@@H](c1ccc2nccn2c1)n1nnc2ncc(-c3cnn(C)c3)nc21 [Savolitinib] + CN(CC[C@H](CSC1=CC=CC=C1)NC2=C(C=C(C=C2)S(=O)(=O)NC(=O)C3=CC=C(C=C3)N4CCC(CC4)[C@H](C5=CC=CC=C5C6=CC=C(C=C6)Cl)O)S(=O)(=O)C(F)(F)F)CCO [AZD4320] (first compound max 1 µM, 7x7, partner max 1 µM)	combination Emax	0.401
Cc1c2c(nn1C)CSCc1cc(n(C)n1)CSc1cc(c3ccccc3c1)OCCCc1c(C(=O)O)n(C)c3c-2c(Cl)ccc13 [AZD5991] + C[C@@H](Nc1cc(F)cc(F)c1)c1cc(C(=O)N(C)C)cc2c(=O)cc(N3CCOCC3)oc12 [AZD8186] (first compound max 1 µM, 7x7, partner max 3 µM)	combination Emax	0.32

Kindly note: UMC-11 (Other Solid Carcinomas), CC1(C)CCC(CN2CCN(c3ccc(C(=O)NS(=O)(=O)c4ccc(NCC5CCOCC5)c([N+](=O)[O-])c4)c(Oc4cnc5[nH]ccc5c4)c3)CC2)=C(c2ccc(Cl)cc2)C1 [Venetoclax] + COc1cc(Nc2ncc3c(n2)-c2ccc(Cl)cc2C(c2c(F)cccc2OC)=NC3)ccc1C(=O)O [Alisertib] (first compound max 1 µM, 7x7, partner max 10 µM) , combination Emax value reported: 0.798
